- targetOrTestSystem: T1, 4H3718-AA
- T1 chain: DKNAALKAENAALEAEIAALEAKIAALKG
- testSummary: two-hybrid library CCmax;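 further: natural log of median RNA to DNA barcode read ratio; higher means stronger binding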
- settings: mean of both orientations
experimentalReadout: interaction score

Here's what some known entries look like.
[
  {
    "binder": "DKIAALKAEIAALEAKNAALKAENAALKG [4H2620-AA]",
    "interaction score": -0.835
  },
  {
    "binder": "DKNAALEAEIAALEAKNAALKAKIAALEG [4H3133-AA]",
    "interaction score": -0.85
  },
  {
    "binder": "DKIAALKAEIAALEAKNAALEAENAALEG [4H2611-AA]",
    "interaction score": -0.987
  },
  {
    "binder": "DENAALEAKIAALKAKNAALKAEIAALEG [4H1401-AA]",
    "interaction score": 0.196
  }
]

(1) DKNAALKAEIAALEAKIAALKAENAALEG [4H3627-AA]
(2) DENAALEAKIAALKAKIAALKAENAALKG [4H1388-AA]
Which value of interaction score is smaller, the one for 1 or the one for 2 ? Let me know the label of the one you choose.
1
(1: -0.468, 2: -0.0337)

(I) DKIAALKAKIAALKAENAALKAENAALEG [4H2907-AA]
(II) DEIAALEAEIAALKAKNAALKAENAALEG [4H123-AA]
Between the two listed entries I and II , which has its interaction score at the higher number? Select an item and report its label.
II
(II: -0.602, I: -1.65)
